Assign fold change (FC) to each entry below.
Target: UniProt:P13807
Assay: Activation of human recombinant muscle GYS1 expressed in insect sf9 cells using glycogen and UDP-glucose as substrates at 75 uM by spectrophotometry relative to control

q: I am curious: what fold change (FC) value has been reported for O=c1c2cccc(COc3ccc(-c4cc(F)c(F)cc4F)cc3)c2[nH]n1C[C@@H](O)CO ?
a: 3.3

q: I am curious: what fold change (FC) value has been reported for Cn1[nH]c2c(COc3ccc(-c4cc(F)c(F)cc4F)cc3)cccc2c1=O ?
a: 6.8

q: I am curious: what fold change (FC) value has been reported for O=c1c2cccc(COc3ccc(-c4cc(F)c(F)cc4F)cc3)c2[nH]n1-c1cccnc1 ?
a: 5.8

q: I am curious: what fold change (FC) value has been reported for O=C(O)[C@@H]1CCCN1C(=O)c1ccc(COc2ccc(-c3ccccc3)cc2)o1 ?
a: 5.8

q: I am curious: what fold change (FC) value has been reported for O=c1c2cccc(COc3ccc(-c4cc(F)c(F)cc4F)cc3)c2[nH]n1CCO ?
a: 5.5

* * *

Target: Glycogen [starch] synthase, muscle (Homo sapiens) (UniProt P13807)
Sequence (whole entry): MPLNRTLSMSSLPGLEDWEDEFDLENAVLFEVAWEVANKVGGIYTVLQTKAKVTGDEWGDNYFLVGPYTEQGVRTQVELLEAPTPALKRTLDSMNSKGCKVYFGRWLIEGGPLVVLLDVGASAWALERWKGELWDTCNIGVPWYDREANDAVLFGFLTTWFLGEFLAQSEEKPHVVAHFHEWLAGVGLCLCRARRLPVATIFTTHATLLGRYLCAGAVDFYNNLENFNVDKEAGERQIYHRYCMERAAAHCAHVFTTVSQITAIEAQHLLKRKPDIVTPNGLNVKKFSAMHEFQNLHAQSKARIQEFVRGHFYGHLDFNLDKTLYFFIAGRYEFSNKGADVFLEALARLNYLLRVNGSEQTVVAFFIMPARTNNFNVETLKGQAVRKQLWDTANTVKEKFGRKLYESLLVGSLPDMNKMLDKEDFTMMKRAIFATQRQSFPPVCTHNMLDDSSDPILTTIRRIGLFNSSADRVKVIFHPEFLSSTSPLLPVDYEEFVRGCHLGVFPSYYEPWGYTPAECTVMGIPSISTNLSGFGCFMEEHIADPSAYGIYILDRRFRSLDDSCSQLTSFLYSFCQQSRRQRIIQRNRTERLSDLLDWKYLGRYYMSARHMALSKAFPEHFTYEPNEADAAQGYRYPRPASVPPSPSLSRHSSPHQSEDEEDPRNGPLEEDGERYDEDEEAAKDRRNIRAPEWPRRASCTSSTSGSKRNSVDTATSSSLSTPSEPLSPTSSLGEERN
Experiment: Activation of human recombinant muscle GYS1 expressed in insect sf9 cells using glycogen and UDP-glucose as substrates at 75 uM by spectrophotometry relative to control
metric: fold change (FC)
Lab note: jot down the number only; don't add units.

q: I am curious: what fold change (FC) value has been reported for Cc1cc(F)c(F)cc1-c1ccc(OCc2cccc3c(=O)n(CC(=O)O)[nH]c23)cc1 ?
a: 3.7

q: I am curious: what fold change (FC) value has been reported for COc1cc(F)c(F)cc1-c1ccc(OCc2cccc3c(=O)n(CC(=O)O)[nH]c23)cc1 ?
a: 3.2

q: I am curious: what fold change (FC) value has been reported for COc1cc(F)c(F)cc1-c1ccc(OCc2cccc3c(=O)n(-c4ccc(F)cc4)[nH]c23)cc1 ?
a: 2.8

q: I am curious: what fold change (FC) value has been reported for O=c1c2cccc(COc3ccc(-c4cc(F)c(F)cc4Cl)cc3)c2[nH]n1-c1cccnc1 ?
a: 6.1

q: I am curious: what fold change (FC) value has been reported for Cc1cc(F)c(F)cc1-c1ccc(OCc2cccc3c(=O)n(C[C@H](O)CO)[nH]c23)cc1 ?
a: 3.3

q: I am curious: what fold change (FC) value has been reported for Cc1cc(F)c(F)cc1-c1ccc(OCc2cccc3c(=O)n(-c4ccc(F)cc4)[nH]c23)cc1 ?
a: 2.5

q: I am curious: what fold change (FC) value has been reported for O=C(O)Cn1[nH]c2c(COc3ccc(-c4cc(F)c(F)cc4F)cc3)cccc2c1=O ?
a: 3.6

q: I am curious: what fold change (FC) value has been reported for O=c1c2cccc(COc3ccc(-c4cc(F)c(F)cc4Cl)cc3)c2[nH]n1C[C@H](O)CO ?
a: 3.5

q: I am curious: what fold change (FC) value has been reported for COCCn1[nH]c2c(COc3ccc(-c4cc(F)c(F)cc4OC)cc3)cccc2c1=O ?
a: 4.4

q: I am curious: what fold change (FC) value has been reported for COc1cc(F)c(F)cc1-c1ccc(OCc2cccc(C(=O)N(C)CCO)c2)cc1 ?
a: 7.3

q: I am curious: what fold change (FC) value has been reported for COCCn1[nH]c2c(COc3ccc(-c4cc(F)c(F)cc4F)cc3)cccc2c1=O ?
a: 3

q: I am curious: what fold change (FC) value has been reported for COc1cc(F)c(F)cc1-c1ccc(OCc2cccc3c(=O)n(C[C@H](O)CO)[nH]c23)cc1 ?
a: 3.3

q: I am curious: what fold change (FC) value has been reported for COc1cc(F)c(F)cc1-c1ccc(OCc2cccc(C(=O)N(C)CC(=O)O)c2)cc1 ?
a: 6.8

q: I am curious: what fold change (FC) value has been reported for COc1cc(F)c(F)cc1-c1ccc(OCc2cccc(C(=O)N3CCC[C@H]3C(=O)O)c2)cc1 ?
a: 5.4

q: I am curious: what fold change (FC) value has been reported for Cc1cc(F)c(F)cc1-c1ccc(OCc2cccc3c(=O)n(C[C@@H](O)CO)[nH]c23)cc1 ?
a: 3

q: I am curious: what fold change (FC) value has been reported for COc1cc(F)c(F)cc1-c1ccc(OCc2cccc3c(=O)n(C[C@@H](O)CO)[nH]c23)cc1 ?
a: 3.1

q: I am curious: what fold change (FC) value has been reported for Cc1cc(F)c(F)cc1-c1ccc(OCc2cccc3c(=O)n(C)[nH]c23)cc1 ?
a: 3

q: I am curious: what fold change (FC) value has been reported for COc1cc(F)c(F)cc1-c1ccc(OCc2cccc3c(=O)n(C)[nH]c23)cc1 ?
a: 5.4

q: I am curious: what fold change (FC) value has been reported for COc1cc(F)c(F)cc1-c1ccc(OCc2cccc(C(=O)N(C)CC(O)CO)c2)cc1 (configuration not stated) ?
a: 6.6

q: I am curious: what fold change (FC) value has been reported for O=c1o[nH]c2c(COc3ccc(-c4cc(F)c(F)cc4F)cc3)cccc12 ?
a: 4

q: I am curious: what fold change (FC) value has been reported for O=c1c2cccc(COc3ccc(-c4cc(F)c(F)cc4F)cc3)c2[nH]n1C[C@H](O)CO ?
a: 3

q: I am curious: what fold change (FC) value has been reported for O=c1c2cccc(COc3ccc(-c4cc(F)c(F)cc4Cl)cc3)c2[nH]n1C[C@@H](O)CO ?
a: 3.6

Every entry's value here was drawn from ChEMBL document CHEMBL2380243.
